target of assay: dopamine D1 receptor (Homo sapiens)
Sequence (P21728 whole entry): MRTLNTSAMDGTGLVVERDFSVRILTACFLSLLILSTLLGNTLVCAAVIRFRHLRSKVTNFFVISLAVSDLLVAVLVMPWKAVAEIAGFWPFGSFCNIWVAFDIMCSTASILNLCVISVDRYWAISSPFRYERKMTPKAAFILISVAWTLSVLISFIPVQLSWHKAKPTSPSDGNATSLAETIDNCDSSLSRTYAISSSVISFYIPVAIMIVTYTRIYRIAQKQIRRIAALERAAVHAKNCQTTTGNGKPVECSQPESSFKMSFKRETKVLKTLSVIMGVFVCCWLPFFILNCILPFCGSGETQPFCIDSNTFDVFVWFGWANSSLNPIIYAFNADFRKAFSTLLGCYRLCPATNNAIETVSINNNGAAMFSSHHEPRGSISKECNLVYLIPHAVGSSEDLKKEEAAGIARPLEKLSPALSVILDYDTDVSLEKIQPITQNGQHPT
protocol details: cAMP HTRF potentiation assay (in the presence of dopamine)
assay conditions: potentiation of cAMP with [EC20] of dopamine (1.1 nM); LMtk (Ltk−) mouse fibroblast cells expressing the dopamine D1 receptor
pEC50: −log10 of the molar value.
Given measured pEC50, output condition met if it is greater than or equal to 7 and condition not met if not.

Illustrative cases are given below, each with its answer.
1) C[C@H]1[C@H]2CCC[C@@H]([C@H](O)C(F)(F)F)[C@@H]2CCN1C(=O)Cc1c(Cl)ccc2c1c(Cl)cn2C; condition not met
2) COc1ccc(C#N)c(CC(=O)N2CC[C@@H]3[C@H](CCC[C@H]3c3cn[nH]n3)[C@@H]2C)c1Cl; condition not met
3) COc1ccc(C#N)c(CC(=O)N2CC[C@@H]3[C@H](CCC[C@H]3C(C)(O)C(F)(F)F)[C@@H]2C)c1Cl (single isomer, unassigned) [Example 7-B]; condition not met

Record COc1ccc(C#N)c(CC(=O)N2CC[C@H]3[C@H]([C@H](O)C(F)(F)F)CCC[C@@H]3[C@@H]2C)c1Cl ; criterion: pEC50 no lower than 7. Met?
condition met
